Provide the recorded glycan array binding signal (z-score) for the entries that follow.
Target or test system: Gal(b1-4)GlcNAc(b1-3)Gal(b1-4)GlcNAc(b1-3)Gal(b1-4)GlcNAc(b1-3)Gal(b1-4)GlcNAc(b1-2)[Gal(b1-4)GlcNAc(b1-3)Gal(b1-4)GlcNAc(b1-3)Gal(b1-4)GlcNAc(b1-3)Gal(b1-4)GlcNAc(b1-6)]Man(a1-6)[Gal(b1-4)GlcNAc(b1-3)Gal(b1-4)GlcNAc(b1-3)Gal(b1-4)GlcNAc(b1-3)Gal(b1-4)GlcNAc(b1-2)Man(a1-3)]Man(b1-4)GlcNAc(b1-4)[Fuc(a1-6)]GlcNAc
Run description: glycan array binding signal (z-score within array); higher = stronger binding
Conditions: glycan notation: IUPAC condensed, linker removed
Shown is part of a subset that was picked to be rich in the strongest signals.
Answer with the value's number alone.

Prompt: I'd like to know its glycan array binding signal (z-score). The binder in question is HA-11100 (Pseudomonas aeruginosa), Q02G51_PSEAB (protein) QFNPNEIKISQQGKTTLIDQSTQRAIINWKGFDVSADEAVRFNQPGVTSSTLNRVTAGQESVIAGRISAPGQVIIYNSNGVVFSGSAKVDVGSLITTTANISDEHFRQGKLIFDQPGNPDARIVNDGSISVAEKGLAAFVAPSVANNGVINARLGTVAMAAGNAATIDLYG
Completion: 3.24

Prompt: I'd like to know its glycan array binding signal (z-score). The binder in question is Flo1 (Saccharomyces cerevisiae), P32768 (protein) SGATEACLPAGQRKSGMNINFYQYSLKDSSTYSNAAYMAYGYASKTKLGSVGGQTDISIDYNIPCVSSSGTFPCPQEDSYGNWGCKGMGACSNSQGIAYWSTDLFGFYTTPTNVTLEMTGYFLPPQTGSYTFKFATVDDSAILSVGGATAFNCCAQQQPPITSTNFTIDGIKPWGGSLPPNIEGTVYMYAGYYYPMKVVYSNAVSWGTLPISVTLPDGTTVSDDFEGYVYSFDDDLSQSNCTVPDPSNY
Completion: 1.44

Prompt: I'd like to know its glycan array binding signal (z-score). The binder in question is CFEM-CGl (Candida glabrata), Q6FRS0 (protein) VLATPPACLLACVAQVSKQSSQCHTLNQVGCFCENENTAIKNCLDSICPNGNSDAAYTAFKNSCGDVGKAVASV
Completion: 0.09

Prompt: I'd like to know its glycan array binding signal (z-score). The binder in question is Epa23 (Candida glabrata) (protein) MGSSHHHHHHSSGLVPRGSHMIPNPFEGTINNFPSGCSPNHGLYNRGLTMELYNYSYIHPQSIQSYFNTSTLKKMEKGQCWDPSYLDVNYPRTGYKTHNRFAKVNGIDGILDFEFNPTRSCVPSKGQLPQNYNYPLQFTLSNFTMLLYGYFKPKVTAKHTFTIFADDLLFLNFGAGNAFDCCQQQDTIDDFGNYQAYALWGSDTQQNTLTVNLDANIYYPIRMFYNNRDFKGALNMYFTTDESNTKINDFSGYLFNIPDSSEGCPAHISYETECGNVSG
Completion: 3.79

Prompt: I'd like to know its glycan array binding signal (z-score). The binder in question is BC2LB (Burholderia cenocepacia), B4EH85_BURCJ (protein) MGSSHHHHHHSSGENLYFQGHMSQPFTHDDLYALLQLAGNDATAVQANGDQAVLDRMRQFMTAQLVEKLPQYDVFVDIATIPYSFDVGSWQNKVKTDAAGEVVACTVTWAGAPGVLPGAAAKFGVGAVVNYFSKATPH
Completion: -0.198

Prompt: I'd like to know its glycan array binding signal (z-score). The binder in question is GST Gap3 (Streptococcus parasanguinis) (protein) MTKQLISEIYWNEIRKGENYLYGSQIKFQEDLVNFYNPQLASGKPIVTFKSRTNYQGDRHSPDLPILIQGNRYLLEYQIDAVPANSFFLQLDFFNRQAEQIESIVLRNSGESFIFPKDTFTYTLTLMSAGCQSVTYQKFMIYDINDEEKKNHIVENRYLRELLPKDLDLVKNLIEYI
Completion: 2.32

Prompt: I'd like to know its glycan array binding signal (z-score). The binder in question is Epa19 (Candida glabrata) (protein) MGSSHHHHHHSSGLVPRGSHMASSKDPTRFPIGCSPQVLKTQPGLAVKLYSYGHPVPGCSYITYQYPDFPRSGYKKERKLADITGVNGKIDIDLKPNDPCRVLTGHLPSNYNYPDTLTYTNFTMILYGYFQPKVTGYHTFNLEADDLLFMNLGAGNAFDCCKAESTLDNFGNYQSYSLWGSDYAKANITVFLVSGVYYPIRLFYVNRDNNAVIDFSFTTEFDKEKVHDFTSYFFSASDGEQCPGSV
Completion: 0.024

Values compiled from the supplement of paper PMC8728848.
